- Test system: K24384-001-R-PDC complex spheroid growth
- Method Description: Anticancer human tumor K24384-001-R-PDC patient-derived pancreatic adenocarcinoma cell line growth inhibition [AhR]; active = viability on the fitted dose curve at most 10% of control; inactive = the rest
- Condition Context: second compound 1 µM; first compound 0.03 µM
Allowed answers: t for active, f for inactive

Below, 5 compounds whose answers are already recorded.
CC(C)CC(NC(=O)C(Cc1ccccc1)NC(=O)c1cnccn1)B(O)O (stereo not given) + CC(CO)NC(=O)c1cc(-c2ccc(Cl)cc2)nn(-c2cnn(C)c2)c1=O | t
CCN(c1cc(-c2ccc(CN3CCOCC3)cc2)cc(C(=O)NCc2c(C)cc(C)[nH]c2=O)c1C)C1CCOCC1 + Cc1cncc(-c2nc(NCCc3c[nH]c4ccccc34)c3ncn(C(C)C)c3n2)c1 | f
O=C(C=Cn1cnc(-c2cc(C(F)(F)F)cc(C(F)(F)F)c2)n1)NNc1cnccn1 + CC(CO)NC(=O)c1cc(-c2ccc(Cl)cc2)nn(-c2cnn(C)c2)c1=O | f
CC(C)CC(NC(=O)C(Cc1ccccc1)NC(=O)c1cnccn1)B(O)O (stereo not given) + Cc1cncc(-c2nc(NCCc3c[nH]c4ccccc34)c3ncn(C(C)C)c3n2)c1 | t
CCc1c2c(nc3ccc(O)cc13)-c1cc3c(c(=O)n1C2)COC(=O)[C@]3(O)CC + Cc1ccccc1N=Nc1ccc(NC(=O)c2ccnn2C)c(C)c1 | f

-- ask Answer briefly: the call reported for CC(C)CC(NC(=O)C(Cc1ccccc1)NC(=O)c1cnccn1)B(O)O (stereo not given) + Cc1ccccc1N=Nc1ccc(NC(=O)c2ccnn2C)c(C)c1 in this assay.
-- reply t

-- ask Answer briefly: the call reported for Nc1ncn(C2CC(O)C(CO)S2)c(=O)n1 (stereo not given) + Cc1ccccc1N=Nc1ccc(NC(=O)c2ccnn2C)c(C)c1 in this assay.
-- reply f

-- ask Answer briefly: the call reported for O=C(C=Cn1cnc(-c2cc(C(F)(F)F)cc(C(F)(F)F)c2)n1)NNc1cnccn1 + Cc1ccccc1N=Nc1ccc(NC(=O)c2ccnn2C)c(C)c1 in this assay.
-- reply f

-- ask Answer briefly: the call reported for CCc1c2c(nc3ccc(O)cc13)-c1cc3c(c(=O)n1C2)COC(=O)[C@]3(O)CC + CC(CO)NC(=O)c1cc(-c2ccc(Cl)cc2)nn(-c2cnn(C)c2)c1=O in this assay.
-- reply f
